assayRemarks: Solubility testing in aqueous media at various pH (Form III)
Assay type: physicochemical
conditions: pH 7.4 buffer (KH2PO4/NaOH), aqueous buffer, thermodynamic from solid; pH 7.4 Buffer; 37° C.; 24 h
measurementKind: solubility at 24 h (µg/mL)
Answers are plain numbers, in µg/mL.

The reported solubility at 24 h of the compound C=CC(=O)N1CCC[C@@H](c2c(F)cc(C(N)=O)c3[nH]c4c(c23)CCCCC4)C1 was 0.8

* * *

assayRemarks: Solubility testing in vehicle, HPLC (Form III)
Type: physicochemical
conditions: oil or lipid, thermodynamic from solid; Sesame oil; RT; 72 h; pH 6.5; loading 15 mg/mL
measurementKind: solubility at 72 h
# output: number + unit

The reported solubility at 72 h of the compound C=CC(=O)N1CCC[C@@H](c2c(F)cc(C(N)=O)c3[nH]c4c(c23)CCCCC4)C1 [Compound 1] was 760 µg/mL
